Where do these numbers come from? They come from the supplement of paper PMC10065799.

target: Fyn (UniProt P06241); test: phosphorylation enrichment, bacterial display (enrichment ratio); higher = better substrate or ligand; peptides without Tyr show the background
Sequence (P06241 whole entry, looked up): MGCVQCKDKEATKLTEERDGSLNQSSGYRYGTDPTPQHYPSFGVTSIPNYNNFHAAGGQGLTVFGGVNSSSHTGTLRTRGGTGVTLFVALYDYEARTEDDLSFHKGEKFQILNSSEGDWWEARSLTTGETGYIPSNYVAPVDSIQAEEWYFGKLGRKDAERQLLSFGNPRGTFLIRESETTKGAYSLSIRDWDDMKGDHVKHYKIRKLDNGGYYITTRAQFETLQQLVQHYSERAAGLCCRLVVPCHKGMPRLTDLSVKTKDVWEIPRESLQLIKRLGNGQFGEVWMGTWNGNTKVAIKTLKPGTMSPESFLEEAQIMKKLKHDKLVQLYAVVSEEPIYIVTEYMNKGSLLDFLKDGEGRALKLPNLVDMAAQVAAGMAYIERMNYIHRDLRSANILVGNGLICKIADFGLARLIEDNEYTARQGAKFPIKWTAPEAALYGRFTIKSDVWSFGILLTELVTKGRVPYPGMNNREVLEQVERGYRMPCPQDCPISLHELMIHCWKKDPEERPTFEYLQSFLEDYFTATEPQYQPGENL
RECORDED ENDPOINT: phosphorylation enrichment
Answer with a bare number; do not write a unit.

QUERY: Field request: phosphorylation enrichment | item: IKNSGYISQYL [EIF2AK3_Y585_R588Q]
RESULT: 0.427

###

molecular target: c-Src SH2; assay: SH2 binding enrichment of the phosphorylated peptide, bacterial display (enrichment ratio); higher = better substrate or ligand; peptides without Tyr show the background
Threshold rule: SH2 binding enrichment greater than or equal to 0.5 is True; below that, False.

Would you please look over these solved cases?
>  <MONOMER SEQUENCE>
RSSGSYGGGGQ [HNRNPA1_Y341_P340S]

>  <EXPERIMENTAL TARGET>
c-Src SH2

>  <ASSIGNED CLASS>
False

$$$$
>  <MONOMER SEQUENCE>
YENGEYIVRQG [PRKG1_Y247_I249V]

>  <EXPERIMENTAL TARGET>
c-Src SH2

>  <ASSIGNED CLASS>
True

$$$$
>  <MONOMER SEQUENCE>
LTFHMYADPNI [SOS1_Y618_F623I_YF]

>  <EXPERIMENTAL TARGET>
c-Src SH2

>  <ASSIGNED CLASS>
True

$$$$
>  <MONOMER SEQUENCE>
HAKKNYGNSSV [HDX_Y197]

>  <EXPERIMENTAL TARGET>
c-Src SH2

>  <ASSIGNED CLASS>
False

$$$$
>  <MONOMER SEQUENCE>
SSWPGYVRPLP [HSPB1_Y54]

>  <EXPERIMENTAL TARGET>
c-Src SH2

>  <ASSIGNED CLASS>
True

$$$$
>  <MONOMER SEQUENCE>
ADEEYYEIIAA [FEStide_no-pY_2014]

>  <EXPERIMENTAL TARGET>
c-Src SH2

>  <ASSIGNED CLASS>
True

$$$$

QUERY: SH2 binding enrichment >= 0.5 for MAQDIYRASFF [ALK_Y1278_R1275Q_YF] ?
RESULT: False

QUERY: SH2 binding enrichment >= 0.5 for KHCEDYVCSYN [DSC1_Y846] ?
RESULT: True

QUERY: SH2 binding enrichment >= 0.5 for QSQQAYQEAFE [YWHAZ_Y149] ?
RESULT: True

QUERY: SH2 binding enrichment >= 0.5 for TYVVLYDAELT [ERCC4_Y581_R576T] ?
RESULT: True

QUERY: SH2 binding enrichment >= 0.5 for QMVGKYASSYM [AVPR2_Y124_M123K] ?
RESULT: True

QUERY: SH2 binding enrichment >= 0.5 for DHTVNYVLKCR [PLEKHG4_Y1068_R1064H] ?
RESULT: False

QUERY: SH2 binding enrichment >= 0.5 for GIVKAYYVRAR [AIPL1_Y267] ?
RESULT: False

QUERY: SH2 binding enrichment >= 0.5 for FHKALYTVRSF [PDE6C_Y266_YF] ?
RESULT: False

QUERY: SH2 binding enrichment >= 0.5 for DDSSAYRSVDE [BCKDHA_Y345] ?
RESULT: True

###

biological target: Grb2 SH2 (UniProt P62993); assay: SH2 binding enrichment of the phosphorylated peptide, bacterial display (enrichment ratio); higher = better substrate or ligand; peptides without Tyr show the background
Sequence (P62993 whole entry, looked up): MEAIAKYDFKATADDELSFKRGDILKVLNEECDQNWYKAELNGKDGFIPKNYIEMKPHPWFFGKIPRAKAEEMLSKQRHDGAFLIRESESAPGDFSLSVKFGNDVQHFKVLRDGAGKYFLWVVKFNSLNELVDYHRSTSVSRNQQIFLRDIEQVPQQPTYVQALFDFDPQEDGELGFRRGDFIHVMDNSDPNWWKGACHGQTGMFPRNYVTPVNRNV
Threshold rule: SH2 binding enrichment greater than or equal to 0.8 is MET; below that, NOT MET.

>  <MONOMER SEQUENCE>
EATKGYPDDPT [G6PD_Y322_L323P]

>  <ASSIGNED CLASS>
NOT MET

$$$$
>  <MONOMER SEQUENCE>
AQAERYDDMAA [YWHAG_Y20_E15A]

>  <ASSIGNED CLASS>
MET

$$$$
>  <MONOMER SEQUENCE>
GQSKGYRPKLF [SIPA1L3_Y1376_YF]

>  <ASSIGNED CLASS>
NOT MET

$$$$
>  <MONOMER SEQUENCE>
LMIEEYLTKEP [BAG3_Y457_L462P]

>  <ASSIGNED CLASS>
NOT MET

$$$$
>  <MONOMER SEQUENCE>
GLRFGYGVLGG [KRTAP20-2_Y15_YF]

>  <ASSIGNED CLASS>
NOT MET

$$$$

QUERY: SH2 binding enrichment >= 0.8 for EYHRLYEEYTR [PIK3R1_Y467_D464H] ?
RESULT: MET

QUERY: SH2 binding enrichment >= 0.8 for CNNFIYGGCRG [SPINT2_Y163] ?
RESULT: MET

QUERY: SH2 binding enrichment >= 0.8 for TRVMEYISCLD [CLTCL1_Y1043_R1046C] ?
RESULT: NOT MET

###

tested on: c-Src; experiment: phosphorylation enrichment, bacterial display (enrichment ratio); higher = better substrate or ligand; peptides without Tyr show the background
RECORDED ENDPOINT: phosphorylation enrichment
Answer with a bare number; do not write a unit.

Please review the following examples before continuing.
>  <MONOMER SEQUENCE>
ATVRPYRPYII [LRP5_Y1528_A1525V]

>  <phosphorylation enrichment>
0.586

$$$$
>  <MONOMER SEQUENCE>
MAQDIYRASFF [ALK_Y1278_R1275Q_YF]

>  <phosphorylation enrichment>
2.28

$$$$
>  <MONOMER SEQUENCE>
QKMLDYLKEKK [RYR2_Y3780]

>  <phosphorylation enrichment>
0.513

$$$$
>  <MONOMER SEQUENCE>
SESSFYKSLNL [NGEF_Y289_A286S_YF]

>  <phosphorylation enrichment>
0.508

$$$$
>  <MONOMER SEQUENCE>
CSRCFYQLTKL [AR_Y858_R856C]

>  <phosphorylation enrichment>
1.14

$$$$
>  <MONOMER SEQUENCE>
CNNFIYGGCRG [SPINT2_Y163]

>  <phosphorylation enrichment>
5.21

$$$$

Attention now turns to another entry.
QUERY: Field request: phosphorylation enrichment | item: KNILCYIQGGS [HYDIN_Y4610]
RESULT: 0.504

###

biological target: Fyn (UniProt P06241); test: phosphorylation enrichment, bacterial display (enrichment ratio); higher = better substrate or ligand; peptides without Tyr show the background
Quick reference: phosphorylation enrichment of the listed items.
Answer with a bare number; do not write a unit.

Please review the following examples before continuing.
>  <MONOMER SEQUENCE>
TLQTMYGCDVG [HLA-B_Y123_S121T]

>  <EXPERIMENTAL TARGET>
Fyn (UniProt P06241)

>  <phosphorylation enrichment>
0.554

$$$$
>  <MONOMER SEQUENCE>
DEEDFYQGSME [ASCC1_Y36]

>  <EXPERIMENTAL TARGET>
Fyn (UniProt P06241)

>  <phosphorylation enrichment>
0.598

$$$$
>  <MONOMER SEQUENCE>
SLNEGYARDFD [FBP1_Y216]

>  <EXPERIMENTAL TARGET>
Fyn (UniProt P06241)

>  <phosphorylation enrichment>
0.639

$$$$
>  <MONOMER SEQUENCE>
YTTIHYNYMCN [TP53_Y234_C229Y]

>  <EXPERIMENTAL TARGET>
Fyn (UniProt P06241)

>  <phosphorylation enrichment>
0.976

$$$$
>  <MONOMER SEQUENCE>
EYFDGYWEYSV [ITGA2B_Y265_G267E]

>  <EXPERIMENTAL TARGET>
Fyn (UniProt P06241)

>  <phosphorylation enrichment>
5.41

$$$$
>  <MONOMER SEQUENCE>
SSNLYYRWLTA [CNGA3_Y169]

>  <EXPERIMENTAL TARGET>
Fyn (UniProt P06241)

>  <phosphorylation enrichment>
2

$$$$
>  <MONOMER SEQUENCE>
LVSCAYQVARG [FGFR1_Y605]

>  <EXPERIMENTAL TARGET>
Fyn (UniProt P06241)

>  <phosphorylation enrichment>
0.487

$$$$
>  <MONOMER SEQUENCE>
ALWFIYLHTRS [ENG_Y614_S615L_YF]

>  <EXPERIMENTAL TARGET>
Fyn (UniProt P06241)

>  <phosphorylation enrichment>
0.433

$$$$
>  <MONOMER SEQUENCE>
YPPTHYIRRMP [SLC4A11_Y820_V824M]

>  <EXPERIMENTAL TARGET>
Fyn (UniProt P06241)

>  <phosphorylation enrichment>
0.397

$$$$
>  <MONOMER SEQUENCE>
LLSVAYKNVVR [YWHAZ_Y48_G53R]

>  <EXPERIMENTAL TARGET>
Fyn (UniProt P06241)

>  <phosphorylation enrichment>
0.762

$$$$

QUERY: Field request: phosphorylation enrichment | item: SNKLYYQLEQE [PDPR_Y110]
RESULT: 1.52

QUERY: Field request: phosphorylation enrichment | item: RIVRKYKKVRF [F8_Y442_G439V]
RESULT: 0.823

QUERY: Field request: phosphorylation enrichment | item: FRDALYKSMVD [PHEX_Y250_F252S_YF]
RESULT: 0.419
